Target: T1, histidine-tagged human SIRPA v1 (Novoprotein) (human, UniProt P78324 31-370, limits assumed)
T1 construct: bought, soluble; also called huSIRPA; soluble huSIRPA; not shown: histidine tag
T1 sequence (P78324 31-370 limits assumed): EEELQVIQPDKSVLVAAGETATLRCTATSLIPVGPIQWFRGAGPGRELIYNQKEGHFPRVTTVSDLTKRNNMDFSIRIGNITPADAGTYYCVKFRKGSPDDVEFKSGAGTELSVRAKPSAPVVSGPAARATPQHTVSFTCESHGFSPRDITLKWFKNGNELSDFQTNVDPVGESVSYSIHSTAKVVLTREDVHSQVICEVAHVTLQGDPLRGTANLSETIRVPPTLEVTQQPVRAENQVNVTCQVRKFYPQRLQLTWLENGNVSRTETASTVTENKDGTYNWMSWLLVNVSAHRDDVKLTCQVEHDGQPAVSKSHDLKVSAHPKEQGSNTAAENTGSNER
Assay: BLI (Octet), antibody on anti-human IgG Fc sensor, His-huSIRPA in solution, single-curve 1:1 fit
Procedure: Initial characterization of affinity matured anti-SIRPA antibodies disclosed herein comprised acquiring antigen affinity measurements using bio-layer interferometry (BLI) on a Pall ForteBio Octet RED96 instrument. Immobilized anti-mouse IgG Fc or anti-human IgG Fc antibodies captured murine anti-SIRPA 3F79 antibody and humanized anti-SIRPA 3F79 antibody on biosensors, respectively. […] Affinity constants (KD) were calculated from the ratio kd/ka.
# Kd annotations
Please answer using the number first and the unit second.

Below, each entry is followed by its recorded Kd result.
>>> value_observed("3F9-13 (antibody, human IgG1, V domains shown, also called mAb 3F9-13) VH: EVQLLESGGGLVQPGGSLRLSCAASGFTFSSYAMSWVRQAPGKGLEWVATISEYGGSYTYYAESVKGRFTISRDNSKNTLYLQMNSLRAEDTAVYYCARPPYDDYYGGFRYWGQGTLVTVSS VL: DIQLTQSPSSLSASVGDRVTITCRASKSVSSGGYSYMHWYQQKPGKAPKLLIYLASNLESGVPSRFSGSGSGTDFTLTISSVQPEDFATYYCQHNRELPTTFGQGTKLEIK")
"1.38 nM"
>>> value_observed("3F9-17 (antibody, human IgG1, V domains shown, also called mAb 3F9-17) VH: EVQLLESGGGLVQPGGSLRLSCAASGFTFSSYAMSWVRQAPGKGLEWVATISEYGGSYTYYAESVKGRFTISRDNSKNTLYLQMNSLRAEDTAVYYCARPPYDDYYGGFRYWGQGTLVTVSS VL: DIQLTQSPSSLSASVGDRVTITCRASKSVSSGGYSYMHWYQQKPGKAPKLLIYLASNLESGVPSRFSGSGSGTDFTLTISSVQPEDFATYYCQHNRELPWTFGQGTKLEIK")
"1.7 nM"

Q. Given the binder 3F9-25 (antibody, human IgG1, V domains shown, also called mAb 3F9-25) VH: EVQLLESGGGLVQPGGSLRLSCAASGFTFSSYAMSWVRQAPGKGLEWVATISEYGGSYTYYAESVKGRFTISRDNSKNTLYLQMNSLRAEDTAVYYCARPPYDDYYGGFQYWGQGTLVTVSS VL: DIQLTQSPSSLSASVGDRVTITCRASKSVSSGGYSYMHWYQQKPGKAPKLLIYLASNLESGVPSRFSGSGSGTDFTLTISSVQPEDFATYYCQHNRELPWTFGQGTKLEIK , what is its reported Kd?
A. 1.06 nM

Just for reference, patent US20240301071A1 is where these values come from.
